Target: GST-CIB1 : F-αIIb peptide (Homo sapiens, UniProt Q99828)
Construct: made in house; host or cells: BL-21 plus RIL cells (E. coli)
Sequence (Q99828 1-191): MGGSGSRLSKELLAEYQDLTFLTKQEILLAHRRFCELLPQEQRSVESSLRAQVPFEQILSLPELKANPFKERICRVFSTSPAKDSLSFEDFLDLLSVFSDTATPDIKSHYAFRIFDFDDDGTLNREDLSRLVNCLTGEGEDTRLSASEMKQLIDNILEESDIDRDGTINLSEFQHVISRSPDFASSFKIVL
Experiment: FP assay in the presence of glutathione (GSH), thiol reactivity
Assay type: binding
Settings: ratio of GSH (+) IC50 to GSH (-) IC50
readout: GSH/CIB1 IC50 ratio
Just the number, please.

Exercise: Return reported GSH/CIB1 IC50 ratio for target or system GST-CIB1 : F-αIIb peptide (Homo sapiens, UniProt Q99828), item COc1ccccc1C(=O)c1no[n+]([O-])c1C(=O)c1ccccc1OC.O=C(O)C(F)(F)F .
Key: 0.3

Exercise: Return reported GSH/CIB1 IC50 ratio for target or system GST-CIB1 : F-αIIb peptide (Homo sapiens, UniProt Q99828), item Oc1ccc2ccccc2c1SSc1c(O)ccc2ccccc12 [NCGC00186047-02, IPA-3, reference compound] .
Key: 1.4

Exercise: Return reported GSH/CIB1 IC50 ratio for target or system GST-CIB1 : F-αIIb peptide (Homo sapiens, UniProt Q99828), item CC(C)(C)c1ccc(SC2=NS(=O)(=O)c3ccccc32)cc1 .
Key: 28.3

Exercise: Return reported GSH/CIB1 IC50 ratio for target or system GST-CIB1 : F-αIIb peptide (Homo sapiens, UniProt Q99828), item O=c1[nH]sc2cc(Cl)ccc12 [NCGC00262908-01, ticlatone, reference compound] .
Key: 44.0

* * *

Target: GST-CIB1 : F-αIIb peptide (Homo sapiens)
Construct: made in house; host or cells: BL-21 plus RIL cells (E. coli)
Sequence (Q99828 1-191): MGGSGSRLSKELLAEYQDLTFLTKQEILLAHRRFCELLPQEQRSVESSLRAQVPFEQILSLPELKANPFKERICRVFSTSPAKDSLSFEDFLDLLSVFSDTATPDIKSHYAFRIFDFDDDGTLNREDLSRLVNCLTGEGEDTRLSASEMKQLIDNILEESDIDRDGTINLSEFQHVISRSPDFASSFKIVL
Test: FP assay in the presence of glutathione (GSH), thiol reactivity
Format: binding
Conditions: with vs without 10 μM reduced GSH
readout: shift in potency in the presence of GSH

> print(dat)
                                   compound          recorded.value
1  CC(C)(C)c1ccc(SC2=NS(=O)(=O)c3ccccc32)cc1  right-shift in potency
2  O=c1[nH]sc2cc(Cl)ccc12 [NCGC00262908-01, ticlatone, reference compound]  right-shift in potency
3  S=C(SSC(=S)N1CCCCC1)N1CCCCC1 [NCGC00181776-02, dipentamethylenethiuram disulfide]  right-shift in potency

* * *

The following compounds are listed with their measured pIC50 values.
target: CIB1 and αIIb interaction (GST-CIB1 : F-αIIb peptide) (Homo sapiens); construct: made in house; host or cells: BL-21 plus RIL cells (E. coli); test: FP assay, 384-well format (screen); format: binding; details: F-αIIb peptide; read-out: 384-well SCREEN IC50
# pIC50 is unitless: minus log10 of the molar concentration; print number only

> print(dat)
                           structure.smiles  readout  recorded.value
1  O=C(O)C(F)(F)F.OCc1ccc(-c2ccc3ncnc(NCc4cccs4)c3c2)o1    pIC50            4.90

Exercise: Consider the compound N[C@@H](Cc1ccc(Oc2cc(I)c(O)c(I)c2)c(I)c1)C(=O)O . State its measured pIC50.
Key: 5.00

Exercise: Consider the compound Cc1cc(F)ccc1S(=O)(=O)Nc1cnccc1C(=O)Nc1nc(-c2ccccc2)cs1 . State its measured pIC50.
Key: 4.55

Exercise: Consider the compound COc1ccc2c(c1)C=C1Cn3c-2c(C2CCCCC2)c2ccc(cc23)C(=O)NS(=O)(=O)N(C)CCOCCN(C)C1=O . State its measured pIC50.
Key: 4.52

Exercise: Consider the compound CCc1ccc(S(=O)(=O)Nc2cnccc2C(=O)Nc2nc(-c3ccccc3)cs2)cc1.O=C(O)C(F)(F)F . State its measured pIC50.
Key: 4.45
